assay: Antiproliferative activity against human EJ138 cells treated with extract obtained from 1 hr incubation of compound with CYP1A1 bactosome measured after 96 hrs by MTT assay; type: functional, cell-based
pIC50: −log10 of the molar value.

Compound | pIC50
COc1ccc2[nH]c(C(=O)N3CC(CCl)c4c3ccc3ccccc43)cc2c1 (stereo unspecified) | 7.70

----------
tested on: RT-112; assay: Antiproliferative activity against human RT112 cells expressing CYP1A1 assessed as growth inhibition after 96 hrs by MTT assay; assay type: functional, cell-based; details: RT-112, 96 h
pIC50: −log10 of the molar value.

Molecule | Operator | pIC50
COc1cc2cc(C(=O)N3CC(CCl)c4c3ccc3[nH]ccc43)[nH]c2cc1OC (configuration not stated) | = | 6.52
CS(=O)(=O)c1cc(F)cc2cc(C(=O)N3CC(CCl)c4c3ccc3[nH]ccc43)[nH]c12 (configuration not stated) | = | 5.11
O=C(c1cc2cc(F)c(F)cc2[nH]1)N1CC(CCl)c2c1ccc1[nH]ccc21 (configuration not stated) | = | 5.74
COc1ccc2[nH]c(C(=O)N3CC(CCl)c4c3cc(O)c3ccccc43)cc2c1 (configuration not stated) | = | 3.82
COc1ccc2[nH]c(C(=O)N3CC(CCl)c4c3ccc3[nH]ccc43)cc2c1 (configuration not stated) | = | 6.70
COc1ccc2[nH]c(C(=O)N3CC(CCl)c4c3ccc3ccccc43)cc2c1 (configuration not stated) | < | 4.30
COc1cc2cc(C(=O)N3CC(CCl)c4c3ccc3[nH]ccc43)[nH]c2c(OC)c1OC (configuration not stated) | = | 5.15
O=C(c1cc2cc(O)ccc2[nH]1)N1CC(CCl)c2c1ccc1[nH]ccc21 (configuration not stated) | = | 4.49
O=C(c1cc2cc(F)cc(F)c2[nH]1)N1CC(CCl)c2c1ccc1[nH]ccc21 (configuration not stated) | = | 4.91
COc1ccc2[nH]c(C(=O)N3CC(CCl)c4c3cc(O)c3[nH]ccc43)cc2c1 (configuration not stated) | = | 9.90
O=C(c1cc2cc(F)ccc2[nH]1)N1CC(CCl)c2c1ccc1[nH]ccc21 (configuration not stated) | = | 4.95
O=C(c1cc2cc(Cl)ccc2[nH]1)N1CC(CCl)c2c1ccc1[nH]ccc21 (configuration not stated) | = | 6.15
